- system tested: Muscarinic acetylcholine receptor M1 (Homo sapiens) (UniProt P11229)
- Sequence (P11229 whole entry, looked up): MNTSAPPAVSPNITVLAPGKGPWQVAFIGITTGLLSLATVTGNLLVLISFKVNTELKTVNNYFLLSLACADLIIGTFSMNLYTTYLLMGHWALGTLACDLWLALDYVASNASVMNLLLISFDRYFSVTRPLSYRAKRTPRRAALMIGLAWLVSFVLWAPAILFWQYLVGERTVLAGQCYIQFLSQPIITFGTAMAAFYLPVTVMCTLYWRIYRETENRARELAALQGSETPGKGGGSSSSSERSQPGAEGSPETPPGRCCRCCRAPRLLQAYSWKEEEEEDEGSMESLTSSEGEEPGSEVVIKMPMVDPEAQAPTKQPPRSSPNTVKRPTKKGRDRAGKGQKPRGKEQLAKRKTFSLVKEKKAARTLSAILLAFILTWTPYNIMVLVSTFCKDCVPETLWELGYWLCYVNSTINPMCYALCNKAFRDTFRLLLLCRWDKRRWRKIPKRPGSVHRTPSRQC
- test name: human M1 muscarinic receptor agonists, primary screen, Fluo-8 calcium fluorescence, CHO-K1 cells, HTS (AID 588814);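 also: peak over basal fluorescence ratio within a 140 s kinetic read after compound addition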
- experimental setup: CHO-K1 hM1, Fluo-8 calcium fluorescence, agonist mode; at 3 µM; 0% DMSO, 100% acetylcholine EC100
Screen size: about 360,000 compounds; about 1,200 (0.33%) were called active.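 The calls were made as follows: active = activation above the run's mean compound activation plus 3 SD (cut at about 16% in these data); inactive = the rest.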 This is one part of a sample in which actives are shown more often than they occur.
Outcomes: class 1 (active), class 0 (inactive)

>>> group_label("COc1cc(/C=C2/SC(=S)N(Cc3ccccc3)C2=O)cc(OC)c1O")
"class 1"
>>> group_label("O=C(COC(=O)/C=C/c1cn(-c2ccccc2)nc1-c1cccnc1)Nc1ccc(Cl)cc1Cl")
"class 0"
>>> group_label("CCCc1ccc(OCC(=O)NNC(=S)NC(=O)c2ccco2)cc1")
"class 0"
>>> group_label("COc1ccccc1N1CCN(C(=O)c2cn(-c3ccccc3)nc2-c2cccnc2)CC1")
"class 0"
>>> group_label("O=C(Nc1ccc2ccccc2c1)/C(=C\\c1ccc2c(c1)OCO2)NC(=O)c1ccco1")
"class 0"
>>> group_label("CC(=O)Nc1cccc(-c2ccnc3c2CC(C)(C(=O)NCc2ccccc2)O3)c1 (configuration not stated)")
"class 0"
>>> group_label("CCOC(=O)C(CC)/C(C)=N\\NC(=O)c1cccc(C)c1 (configuration not stated)")
"class 0"
>>> group_label("C=CCn1c(SCc2c(C(=O)OC)sc(N)c2C(=O)OC)nnc1-c1ccc(Cl)cc1")
"class 0"
>>> group_label("COc1ccc(CCNC2=C(Cl)C(=O)N(Cc3ccccc3)C2=O)cc1OC")
"class 0"
>>> group_label("CCN1CCc2nc(NC(=O)c3cc(F)c(F)cc3Cl)sc2C1")
"class 0"
>>> group_label("O=C(N=C1SC2CS(=O)(=O)CC2N1Cc1ccccc1)c1ccccc1 (configuration not stated)")
"class 0"
>>> group_label("CC(NC(=O)CSc1nc2c(cc1C#N)CN(C)CC2)c1ccccc1 (configuration not stated)")
"class 1"
>>> group_label("COc1ccc(C)cc1-n1nnnc1SCc1nc2ccccc2c(=O)[nH]1")
"class 1"
>>> group_label("CC1Cc2ccccc2N1CC(=O)Nc1ccc(S(N)(=O)=O)cc1 (configuration not stated)")
"class 0"
>>> group_label("CN(CC(=O)NCCN1CCOCC1)S(=O)(=O)c1ccc(F)cc1")
"class 0"
>>> group_label("CCn1c(COc2c(C)cccc2C)nnc1SCc1nc2ccccc2c(=O)[nH]1")
"class 0"
>>> group_label("O=c1c2ccccc2c(-c2ccccc2)nn1-c1ccccn1")
"class 0"
>>> group_label("Cc1cc(NC(=O)CSc2nc3c(cc2C#N)CCCCC3)no1")
"class 0"
>>> group_label("CC(C)(C)OC(=O)N/N=C/c1cn(-c2ccccc2)nc1-c1cccnc1")
"class 1"
>>> group_label("COc1ccc(CCCc2nnc(SCc3nc4ccccc4c(=O)[nH]3)n2C)cc1")
"class 0"
>>> group_label("COCCNc1cc(-c2ccccc2)nc2cc(-c3cccc(F)c3)nn12")
"class 0"
>>> group_label("CCN1CCN(c2cc3nc(C)n(Cc4ccccc4)c(=O)c3cc2NC(=O)c2ccccc2F)CC1")
"class 0"
